System: 699152-130-R-J1-PDC complex spheroid viability
Assay: Anticancer human tumor 699152-130-R-J1-PDC patient-derived pancreatic carcinoma cell line growth inhibition [POLQ]
Conditions: second compound 0.0316 µM; first compound 10 µM; hits give low values
Protocol: Multicellular complex tumor spheroid response to Polymerase (POL) inhibitors (novobiocin, ART-558, RP6685) in combination with a variety of drugs and investigational agents in selected tumor cell lines The POL inhibitors (novobiocin, ART-558, and RP6685) were evaluated both individually and in combination with standard of care and investigational anticancer small molecules within a complex spheroid model of solid tumors. . […]
Test Readout: viability, T/C (%)
Please respond with the number in % and leave the unit unwritten.

compound="CC1COCCN1c1cc(C2(O)CC3CCC(C2)O3)c2cnn(-c3ccn[nH]3)c2n1 (stereo not given) + Cc1cccc(N(C)C(=O)C2C(O)CCN2c2nc(C)cc(C(F)(F)F)c2C#N)c1" readout_value=33.1

# get_value(readout='viability, T/C', item= CC1COCCN1c1cc(-c2ccnn2C)c2ccnc(-c3ccn[nH]3)c2n1 (stereo not given) + Nc1ccc(C#CCN(C(=O)Cc2ncc(C(F)(F)F)cc2C(F)(F)F)c2ccc(F)cc2)nn1 )
50

And then CC(C)n1c(=O)n(C)c2cnc3cc(F)c(-c4ccc(OCCCN5CCCCC5)nc4)cc3c21 + COC1C(OC(N)=O)C(O)C(Oc2ccc3c(O)c(NC(=O)c4ccc(O)c(CC=C(C)C)c4)c(=O)oc3c2C)OC1(C)C , what is it?
45.8

Same question for O=C(Nc1ccc(O)c(NS(=O)(=O)c2ccc(F)cc2)c1)c1ccc(-c2ccccc2)cc1 + COC1C(OC(N)=O)C(O)C(Oc2ccc3c(O)c(NC(=O)c4ccc(O)c(CC=C(C)C)c4)c(=O)oc3c2C)OC1(C)C please.
80.8

Query C#Cc1c(F)ccc2cc(O)cc(-c3ncc4c(N5CC6CCC(C5)N6)nc(OCC56CCCN5CC(F)C6)nc4c3F)c12 (stereo not given) + Cc1cccc(N(C)C(=O)C2C(O)CCN2c2nc(C)cc(C(F)(F)F)c2C#N)c1 next
12.1

---

system: 699152-130-R-J1-PDC complex spheroid viability; experiment: Anticancer human tumor 699152-130-R-J1-PDC cell line growth inhibition [POLQ]; details: second compound 0.1 µM; first compound 0.316 µM; hits give low values;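 note: spheroids exposed to agents for 7 days before viability reading; percent of DMSO vehicle control viability so 100% = vehicle and 0% = no viable signal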
Test Readout: viability, T/C (%)
I only need the number, in %, no unit after it.

compound="CC1COCCN1c1cc(C2(S(C)(=N)=O)CC2)nc(-c2ccnc3[nH]ccc23)n1 (stereo not given) + COC1C(OC(N)=O)C(O)C(Oc2ccc3c(O)c(NC(=O)c4ccc(O)c(CC=C(C)C)c4)c(=O)oc3c2C)OC1(C)C" readout_value=90.2
compound="COc1cc2cc(C(=O)CCC(=O)O)sc2cc1OC + COC1C(OC(N)=O)C(O)C(Oc2ccc3c(O)c(NC(=O)c4ccc(O)c(CC=C(C)C)c4)c(=O)oc3c2C)OC1(C)C" readout_value=94.3
compound="COc1cc(C2c3cc4c(cc3C(OC3OC5COC(C)OC5C(O)C3O)C3COC(=O)C23)OCO4)cc(OC)c1O (stereo not given) + Cc1cccc(N(C)C(=O)C2C(O)CCN2c2nc(C)cc(C(F)(F)F)c2C#N)c1" readout_value=72.9
compound="CCCS(=O)(=O)Nc1ccc(F)c(C(=O)c2c[nH]c3ncc(-c4ccc(Cl)cc4)cc23)c1F + Cc1cccc(N(C)C(=O)C2C(O)CCN2c2nc(C)cc(C(F)(F)F)c2C#N)c1" readout_value=126

Moving on to another compound below.
Report viability, T/C for COc1cccc(OCCCN)c1-c1cc(Nc2cnc(C#N)cn2)n[nH]1 + COC1C(OC(N)=O)C(O)C(Oc2ccc3c(O)c(NC(=O)c4ccc(O)c(CC=C(C)C)c4)c(=O)oc3c2C)OC1(C)C please.
50.8
